For each of the molecules below, state its relative viability.
- Tested on: A204
- assay.comment: relative viability vs DMSO control (72 h) (fraction); higher = more viable cells
- assay.setup: 1.111 µM
Numbers only.

Example entries and their recorded answers appear below.
COc1cc2nccc(Oc3ccc(NC(=O)Nc4cc(C)on4)c(Cl)c3)c2cc1OC [Tivozanib]
0.418
CC(=O)Nc1cccc(-n2c(=O)n(C3CC3)c(=O)c3c(Nc4ccc(I)cc4F)n(C)c(=O)c(C)c32)c1 [Trametinib]
0.544
Cc1cnc(Nc2ccc(OCCN3CCCC3)cc2)nc1Nc1cccc(S(=O)(=O)NC(C)(C)C)c1 [Fedratinib]
0.396

Task: Using the record for COc1cc2/c(=N/c3ccc(Br)cc3F)nc[nH]c2cc1OCC1CCN(C)CC1 [Vandetanib] , report its relative viability.
Output: 0.706

---

- Test system: SW872
- assay.comment: relative viability vs DMSO control (72 h) (fraction); higher = more viable cells
- assay.setup: 10 µM
Please go through the items and note down their relative viability.
Answers are plain numbers.

Recorded relative viability, per entry:
CO[C@H]1C[C@@H]2CC[C@@H](C)[C@@](O)(O2)C(=O)C(=O)N2CCCC[C@H]2C(=O)O[C@H]([C@H](C)C[C@@H]2CC[C@@H](OP(C)(C)=O)[C@H](OC)C2)CC(=O)[C@H](C)/C=C(\C)[C@@H](O)[C@@H](OC)C(=O)[C@H](C)C[C@H](C)/C=C/C=C/C=C/1C
0.565
CC[C@H](Nc1ncnc2[nH]cnc12)c1nc2cccc(F)c2c(=O)n1-c1ccccc1
0.746
CC1(C)CNc2cc(NC(=O)c3cccnc3NCc3ccncc3)ccc21
0.811
C[C@@H]1CCN(C(=O)CC#N)C[C@@H]1N(C)c1ncnc2[nH]ccc12
0.747
Cn1cnc2c(F)c(Nc3ccc(Br)cc3F)c(C(=O)NOCCO)cc21
0.559

// each compound listed below needs its relative viability
1. CN1CCN(c2ccc3nc(-c4c(N)c5c(F)cccc5[nH]c4=O)[nH]c3c2)CC1
2. Cc1ccc(NC(=O)c2ccc(CN3CCN(C)CC3)cc2)cc1Nc1nc(-c2cccnc2)cs1

Output:
0.235
0.127

---

- Test system: VA-ES-BJ
- assay.comment: relative viability vs DMSO control (72 h) (fraction); higher = more viable cells
- assay.setup: 0.1235 µM
reported.metric: relative viability
Answers are plain numbers.

The following compounds have reported results that may help.
CNC(=O)c1ccc(-c2cnc3ncc(Cc4ccc5ncccc5c4)n3n2)cc1F [Capmatinib]
0.839
CCc1cc2c(cc1N1CCC(N3CCOCC3)CC1)C(C)(C)c1[nH]c3cc(C#N)ccc3c1C2=O [Alectinib]
1.04
COc1cc2/c(=N/c3ccc(Br)cc3F)nc[nH]c2cc1OCC1CCN(C)CC1 [Vandetanib]
1.11

Please find the next compound below.
Task: Fill blank: measured relative viability of the compound N#CC[C@H](C1CCCC1)n1cc(-c2ncnc3[nH]ccc23)cn1 [Ruxolitinib] is ____.
Output: 0.987

---

- System: SW982
- assay.comment: relative viability vs DMSO control (72 h) (fraction); higher = more viable cells
- assay.setup: 1.111 µM
reported.metric: relative viability
Give bare numbers.

In the examples that follow, each entry is paired with its recorded relative viability.
CN1CCN(c2ccc3nc(-c4c(N)c5c(F)cccc5[nH]c4=O)[nH]c3c2)CC1
0.483
CC[C@H](Nc1ncnc2[nH]cnc12)c1nc2cccc(F)c2c(=O)n1-c1ccccc1
1

Give relative viability for each of the items listed below.
1. CC(C)NC(=O)C1CCC(n2c(NC(=O)c3ccc(F)cc3)nc3ccc(CN4CCC(C(C)(C)O)CC4)cc32)CC1 (stereo not drawn)
2. CNC(=O)c1cc(Oc2ccc(NC(=O)Nc3ccc(Cl)c(C(F)(F)F)c3)c(F)c2)ccn1
3. N#CC[C@H](C1CCCC1)n1cc(-c2ncnc3[nH]ccc23)cn1
4. Cc1ccc(F)c(NC(=O)Nc2ccc(-c3cccc4[nH]nc(N)c34)cc2)c1
5. C[C@@H](c1ccc2nccn2c1)n1nnc2ncc(-c3cnn(C)c3)nc21
6. Nc1cc(C(F)(F)F)c(-c2cc(N3CCOCC3)nc(N3CCOCC3)n2)cn1

Output:
0.383
0.997
0.842
1.1
1.04
0.405

---

Task for the reader: assign each of the following compounds its reported relative viability.
- Tested on: KHOS-NP
- assay.comment: relative viability vs DMSO control (72 h) (fraction); higher = more viable cells
- assay.setup: 0.00152 µM
Give bare numbers.

As a guide, the following entries are already answered.
COc1cc2/c(=N/c3ccc(Br)cc3F)nc[nH]c2cc1OCC1CCN(C)CC1
1.04
CC(=O)Nc1cccc(-n2c(=O)n(C3CC3)c(=O)c3c(Nc4ccc(I)cc4F)n(C)c(=O)c(C)c32)c1
1.05
C[C@@H]1CCN(C(=O)CC#N)C[C@@H]1N(C)c1ncnc2[nH]ccc12
1.08

List reported relative viability for each of these compounds:
1. Cc1cc(Nc2ncnc3ccc(NC4=NC(C)(C)CO4)cc23)ccc1Oc1ccn2ncnc2c1
2. Cn1cnc2c(F)c(Nc3ccc(Br)cc3F)c(C(=O)NOCCO)cc21
3. O=C(Nc1cnn2ccc(N3CCC[C@@H]3c3cc(F)ccc3F)nc12)N1CC[C@H](O)C1
4. Cc1nc(NC(=O)N2CCC[C@H]2C(N)=O)sc1-c1ccnc(C(C)(C)C(F)(F)F)c1
5. Cn1cc(-c2cc3c(N4CCN(c5ncc([C@@](C)(N)c6ccc(F)cc6)cn5)CC4)ncnn3c2)cn1
6. O=C(Cc1ccc(-c2ccc(OCCN3CCOCC3)cc2)cn1)NCc1ccccc1
7. CC[C@H](Nc1ncnc2[nH]cnc12)c1nc2cccc(F)c2c(=O)n1-c1ccccc1
8. CCN1CCN(Cc2ccc(Nc3ncc(F)c(-c4cc(F)c5nc(C)n(C(C)C)c5c4)n3)nc2)CC1

Output:
1: 1.13; 2: 1.08; 3: 1.08; 4: 1.06; 5: 1.02; 6: 1.11; 7: 1.12; 8: 1.02

Give measured relative viability for every item shown.
1. CC(C)N1CCN(Cc2cnc(-c3cc(-c4cccc5[nH]ccc45)cc4[nH]ncc34)o2)CC1
2. CC(C)(C)c1cc(NC(=O)Nc2ccc(-c3cn4c(n3)sc3cc(OCCN5CCOCC5)ccc34)cc2)no1
3. Cc1cc(C)c(/C=C2\C(=O)Nc3ccccc32)[nH]1
4. COc1c(OCCCN2CCOCC2)ccc2c1N=C(NC(=O)c1cnc(N)nc1)N1CCN=C21
5. C[C@@H](c1ccc2nccn2c1)n1nnc2ncc(-c3cnn(C)c3)nc21

Output:
1: 1.02; 2: 1.1; 3: 1.05; 4: 1.11; 5: 1.09

---

- System: SW982
- assay.comment: relative viability vs DMSO control (72 h) (fraction); higher = more viable cells
- assay.setup: 0.04115 µM
Rule for this label: MET means relative viability is less than 1; NOT MET means relative viability is at least 1.

Some solved cases for reference:
Cc1nc(-c2cn3c(n2)-c2ccc(-c4cnn(C(C)(C)C(N)=O)c4)cc2OCC3)n(C(C)C)n1
MET
Cn1cnc2c(F)c(Nc3ccc(Br)cc3F)c(C(=O)NOCCO)cc21
MET
C[C@@H]1CCN(C(=O)CC#N)C[C@@H]1N(C)c1ncnc2[nH]ccc12
NOT MET
C[C@@H]1COCCN1c1cc(-c2ccnn2C)c2ccnc(-c3ccn[nH]3)c2n1
MET

Here is the next item to consider.
Task: Report whether reported relative viability is lower than 1 (strictly) for CC(C)NC(=O)C1CCC(n2c(NC(=O)c3ccc(F)cc3)nc3ccc(CN4CCC(C(C)(C)O)CC4)cc32)CC1 (configuration not stated)
Output: NOT MET

---

- System: SW982
- assay.comment: relative viability vs DMSO control (72 h) (fraction); higher = more viable cells
- assay.setup: 0.00017 µM
reported.metric: relative viability

Cc1cc(C)c(/C=C2\C(=O)Nc3ccccc32)[nH]1
1.02
Cn1cnc2c(F)c(Nc3ccc(Br)cc3F)c(C(=O)NOCCO)cc21
0.974
CN1CCN(c2ccc3nc(-c4c(N)c5c(F)cccc5[nH]c4=O)[nH]c3c2)CC1
1.02
CNC(=O)c1ccc(-c2cnc3ncc(Cc4ccc5ncccc5c4)n3n2)cc1F
1.04

Would you be so kind as to report relative viability for each listed record?
1. CC1(C)CNc2cc(NC(=O)c3cccnc3NCc3ccncc3)ccc21
2. C=CC(=O)Nc1cccc(Oc2nc(Nc3ccc(N4CCN(C)CC4)cc3)nc3ccsc23)c1
3. COc1cc2c(Oc3ccc4[nH]c(C)cc4c3F)ncnc2cc1OCCCN1CCCC1

Output:
1: 0.979; 2: 1.01; 3: 1.04

---

- Tested on: SYO-1
- assay.comment: standardised AUC of viability dose-response curve (72 h) (fraction (0-1)); higher = less growth inhibition (more resistant)
Class (by standardised AUC) -- low-valued = under 0.8, mid-valued = from 0.8 up to 0.9, high-valued = 0.9 and over

Examples with answers:
Cc1cc(C)c(/C=C2\C(=O)Nc3ccccc32)[nH]1 [SEMAXANIB]
mid-valued
N#CC[C@H](C1CCCC1)n1cc(-c2ncnc3[nH]ccc23)cn1 [RUXOLITINIB]
high-valued
COc1c(OCCCN2CCOCC2)ccc2c1N=C(NC(=O)c1cnc(N)nc1)N1CCN=C21 [COPANLISIB]
low-valued
COc1cccc2c1C(=O)c1c(O)c3c(c(O)c1C2=O)C[C@@](O)(C(=O)CO)C[C@@H]3O[C@H]1C[C@H](N)[C@H](O)[C@H](C)O1 [DOXORUBICIN]
low-valued
Cc1ccc(NC(=O)c2ccc(CN3CCN(C)CC3)cc2)cc1Nc1nc(-c2cccnc2)cs1 [MASITINIB]
low-valued

Task: # classify by standardised AUC band: CN1CCN(c2ccc3nc(-c4c(N)c5c(F)cccc5[nH]c4=O)[nH]c3c2)CC1 [DOVITINIB]
Output: low-valued

The origin of these recorded values is the supplement of paper PMC10883282.
